system: SARS-CoV-2 M^pro protease (Severe acute respiratory syndrome coronavirus 2 (2019-nCoV) (SARS-CoV-2), UniProt P0DTD1)
assay_overview: biochemical
Assay type: biochemical
test_parameters: Tables 5B-5E; M^pro 75 nM, substrate 10 μM
pIC50: −log10 of the molar value.
pIC50 values for the molecules below.
endpoint: pIC50

Cc1ccccc1C1CC2(C1)NC(=O)N(c1cncc3ccccc13)C2=O (centres unmarked) [Compound 23]
6.03
O=C1NC2(CC(c3ccccc3Cl)C2)C(=O)N1c1cncc2nc[nH]c12 (centres unmarked) [Compound 97]
6.54
N#CCN1C(=O)N(c2cncc3ccccc23)C(=O)C12CC(C1CCC1)C2 (centres unmarked) [Compound 72]
5.87
O=C1NC2(CC(c3ccccc3Cl)C2)C(=O)N1c1cncc2c(F)c(F)c(F)cc12 (single isomer, unassigned) [Compound 60]
5.86
COc1ccccc1C1CC2(C1)NC(=O)N(c1cncc3ccccc13)C2=O (centres unmarked) [Compound 20]
6.32
O=C1N(c2cncc3ccccc23)C(=O)C2(CC(C3CCC3)C2)N1Cc1cc(Cl)nc(Cl)c1 (centres unmarked) [Compound 71]
5.97
O=C1NC2(CC(c3ccccc3C(F)(F)F)C2)C(=O)N1c1cncc2ccccc12 (centres unmarked) [Compound 22]
6.71
O=C1NC2(CC(OCc3ccccc3)C2)C(=O)N1c1cncc2ccccc12 (centres unmarked) [Compound 48]
5.59
O=C1NC2(CC(c3ccccc3Cl)C2)C(=O)N1c1cnccc1C(F)(F)F (centres unmarked) [Compound 92]
6.51
O=C1NC2(CC(c3cc(F)ccc3Cl)C2)C(=O)N1c1cncc2ccccc12 (single isomer, unassigned) [Compound 34]
6.32
O=C1NC2(CC(c3ccccc3Cl)C2)C(=O)N1c1cncc2ccc(F)cc12 (centres unmarked) [Compound 54]
7.18
O=C1NC2(CC(c3cccc(F)c3Cl)C2)C(=O)N1c1cncc2ccccc12 (single isomer, unassigned) [Compound 31]
6.82
CN(C)c1ccncc1N1C(=O)NC2(CC(c3ccccc3Cl)C2)C1=O (centres unmarked) [Compound 93]
6.80
O=C1NC2(CC(c3c(F)cccc3Cl)C2)C(=O)N1c1cncc2ccccc12 (single isomer, unassigned) [Compound 37]
7.19
CC(=O)N1C(=O)N(c2cncc3ccccc23)C(=O)C12CC(C1CCC1)C2 (centres unmarked) [Compound 79]
5.51
O=C1NC2(CC(c3ccccc3Cl)C2)C(=O)N1c1cc(Br)cnc1F (centres unmarked) [Compound 85]
6.49
N#Cc1ccccc1C1CC2(C1)NC(=O)N(c1cncc3ccccc13)C2=O (centres unmarked) [Compound 24]
7.07
CN1C(=O)N(c2cncc3ccccc23)C(=O)C12CC(C1CCC1)C2 (centres unmarked) [Compound 69]
6.25
CN1C(=O)N(c2cncc3ccccc23)C(=O)C12CC(c1ccccc1Cl)C2 (centres unmarked) [Compound 68]
6.34
CC1(c2ccc(F)cc2Cl)CC2(C1)NC(=O)N(c1cncc3ccccc13)C2=O (single isomer, unassigned) [Compound 84]
6.09
CC1(c2ccccc2Cl)CC2(C1)NC(=O)N(c1cncc3ccccc13)C2=O (centres unmarked) [Compound 95]
7.16
C=CCN1C(=O)N(c2cncc3ccccc23)C(=O)C12CC(C1CCC1)C2 (centres unmarked) [Compound 74]
5.82
O=C1NC2(CC(c3ccccc3Cl)C2)C(=O)N1c1cncc2cccc(F)c12 (centres unmarked) [Compound 53]
6.60
O=C1NC2(CC(c3ccccc3Cl)C2)C(=O)N1c1cnnc2ccccc12 (centres unmarked) [Compound 94]
5.74
O=C1NC2(CC(c3ccccc3Cl)C2)C(=O)N1c1cccnc1F (centres unmarked) [Compound 62]
6.70
O=C1NC2(CC(c3sccc3Cl)C2)C(=O)N1c1cncc2ccccc12 (single isomer, unassigned) [Compound 42]
6.73
CC1(c2ccccc2Cl)CC2(C1)NC(=O)N(c1cncc3ccccc13)C2=O (centres unmarked) [Compound 96]
6.39
O=C1NC2(CC(c3c(Cl)cccc3Cl)C2)C(=O)N1c1cncc2ccccc12 (single isomer, unassigned) [Compound 29]
6.78
O=C1NC2(CC(c3ccccc3Br)C2)C(=O)N1c1cncc2ccccc12 (single isomer, unassigned) [Compound 16]
6.90
CC1(c2ccccc2)CC2(C1)NC(=O)N(c1cncc3ccccc13)C2=O (single isomer, unassigned) [Compound 39]
6.03
O=C1N(c2cncc3ccccc23)C(=O)C2(CC(C3CCC3)C2)N1Cc1ccccn1 (centres unmarked) [Compound 76]
5.61

* * *

pKd values for the molecules below.
system: M^pro (Severe acute respiratory syndrome coronavirus 2 (2019-nCoV) (SARS-CoV-2))
Assay type: binding
test_parameters: steady-state analysis, 25° C.
pKd: −log10 of the molar value.
endpoint: pKd

O=C1NC2(CC(C3CCC3)C2)C(=O)N1c1cncc(F)c1 (stereo not drawn)
4.18
O=C1NC2(CC(c3ccccc3Cl)C2)C(=O)N1c1cncc2c(F)c(F)c(F)cc12 (single isomer, unassigned) [Compound 60]
6.44
O=C1NC2(CC(c3ccccc3Cl)C2)C(=O)N1c1cncc2nccnc12 (stereo not drawn)
6.87
